System: Plasmodium falciparum
Experiment: Antiplasmodial activity against Plasmodium falciparum K1 infected in human erythrocyte assessed as assessed as inhibition of parasite growth
Format: functional, organism-based
quantity.kind: IC50

Challenge: # get_value(readout='IC50', item= `O=C(CCCP(=O)(O)O)Nc1ccccc1F` )
Response given: > 64 µM

Challenge: # get_value(readout='IC50', item= `CC(=O)c1ccccc1NC(=O)CCCP(=O)(O)O` )
Response given: > 64 µM

Challenge: # get_value(readout='IC50', item= `CS(=O)(=O)c1ccccc1NC(=O)CCCP(=O)(O)O` )
Response given: > 64 µM

###

Molecular target: 1-deoxy-D-xylulose 5-phosphate reductoisomerase (Escherichia coli K-12, UniProt P45568)
Sequence (P45568 whole entry): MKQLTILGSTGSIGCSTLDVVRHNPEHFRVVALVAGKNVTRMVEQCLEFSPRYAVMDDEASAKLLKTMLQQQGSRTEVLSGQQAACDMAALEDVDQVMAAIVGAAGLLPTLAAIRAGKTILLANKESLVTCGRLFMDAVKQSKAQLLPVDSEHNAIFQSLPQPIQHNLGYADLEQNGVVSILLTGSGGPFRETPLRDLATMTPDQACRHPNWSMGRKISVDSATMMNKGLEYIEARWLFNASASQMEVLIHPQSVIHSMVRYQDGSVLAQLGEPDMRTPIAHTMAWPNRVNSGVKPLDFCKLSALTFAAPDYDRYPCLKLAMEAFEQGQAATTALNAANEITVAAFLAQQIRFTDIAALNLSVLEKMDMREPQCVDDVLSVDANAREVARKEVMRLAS
Experiment: Inhibition of His-tagged Escherichia coli DXR using DXP as substrate incubated for 1 min in presence of NADPH by UV-Vis spectrophotometric assay
quantity.kind: IC50 (µM)
Give just the number in µM; leave the unit off.

Challenge: I'm curious: which IC50 was measured for `O=P(O)(O)CCCB(O)O` tested on 1-deoxy-D-xylulose 5-phosphate reductoisomerase (Escherichia coli K-12, UniProt P45568)?
Response given: 125

Cited source for all entries: ChEMBL document CHEMBL5226280
